TGT: K-Ras G12C(GMP-PNP) binding to BRAF RBD (Homo sapiens (Human), UniProt P01116+P62937, G12C)
Sequence (P01116 other isoform, or with tags, fused parts or gaps G12C): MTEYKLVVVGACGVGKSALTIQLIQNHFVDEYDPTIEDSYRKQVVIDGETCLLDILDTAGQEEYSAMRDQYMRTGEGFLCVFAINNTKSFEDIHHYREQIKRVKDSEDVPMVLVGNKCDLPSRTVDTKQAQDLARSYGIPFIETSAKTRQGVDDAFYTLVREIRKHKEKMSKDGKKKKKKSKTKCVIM
Sequence (P62937 whole entry): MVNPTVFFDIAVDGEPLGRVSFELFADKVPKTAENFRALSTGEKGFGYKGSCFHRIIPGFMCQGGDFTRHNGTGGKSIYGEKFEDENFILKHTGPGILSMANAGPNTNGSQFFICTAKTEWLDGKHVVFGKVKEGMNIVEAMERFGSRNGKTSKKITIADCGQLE
TEST_DESCRIPTION: Disruption of BRAF RBD interaction with K-Ras (FRET / MOA assay), K-Ras G12C
Format: biochemical
RUN_PARAMETERS: KRAS G12C FRET IC50
Known IC50 of a selection of compounds

Below, each entry is followed by its recorded IC50 result.
1) CCn1c(-c2cccnc2[C@H](C)OC)c2c3cc(ccc31)-c1csc(n1)C[C@H](NC(=O)[C@H](C(C)C)N(C)C(=O)N1CCC(N(C)C)CC1)C(=O)N1CCC[C@H](N1)C(=O)OCC(C)(C)C2 :: 100 to 1000 nM
2) CCn1c(-c2cccnc2[C@H](C)OC)c2c3cc(ccc31)-c1csc(n1)C[C@H](NC(=O)[C@H](C(C)C)N(C)C(=O)C1COC1)C(=O)N1CCC[C@H](N1)C(=O)OCC(C)(C)C2 :: < 10 nM
3) CCn1c(-c2cc(N3CCN(C)CC3)cnc2[C@H](C)OC)c2c3cc(ccc31)-c1csc(n1)C[C@H](NC(=O)[C@H](C(C)C)N(C)C(=O)N1CC(OC)C1)C(=O)N1CCC[C@H](N1)C(=O)OCC(C)(C)C2 :: 10 to 100 nM

Now let's try a different one.
Query CCn1c(-c2cccnc2[C@H](C)OC)c2c3cc(ccc31)-c1cc(O)cc(c1)C[C@H](NC(=O)[C@H](C(C)C)N(C)C(=O)C1CCN3CCOCC13)C(=O)N1CCC[C@H](N1)C(=O)OCC(C)(C)C2 (stereo partly shown) yields IC50 of 10 to 100 nM

* * *

Below is a list of entries, each paired with its recorded pIC50 value.
Tested on: NCI-H358 cells (K-Ras G12C)
TEST_DESCRIPTION: CellTiter-Glo cell viability, NCI-H358
Type: cell-based, human
RUN_PARAMETERS: Homo sapiens, NCI-H358, 120 h, K-Ras G12C, 5-day treatment; read-out: H358 Cell Viability IC50
pIC50: −log10 of the molar value.

1) CCn1c(-c2cccnc2[C@H](C)OC)c2c3cc(ccc31)-c1csc(n1)C[C@H](NC(=O)[C@H](C(C)C)N(C)C(=O)N1C[C@@H]3C[C@H]1CN3C)C(=O)N1CCC[C@H](N1)C(=O)OCC(C)(C)C2 :: 6.00 to 7.00
2) CCn1c(-c2cccnc2[C@H](C)OC)c2c3cc(ccc31)-c1csc(n1)C[C@H](NC(=O)[C@H](C(C)C)N(C)C(=O)N1CC3(CCCN(C)C3=O)C1)C(=O)N1CCC[C@H](N1)C(=O)OCC(C)(C)C2 :: 5.00 to 6.00
3) CCn1c(-c2cccnc2[C@H](C)OC)c2c3cc(ccc31)-c1csc(n1)C[C@H](NC(=O)[C@H](C(C)C)N(C)C(=O)N1CC3CCC1CN3C)C(=O)N1CCC[C@H](N1)C(=O)OCC(C)(C)C2 :: 6.00 to 7.00
4) CCn1c(-c2cccnc2[C@H](C)OC)c2c3cc(ccc31)-c1csc(n1)C[C@H](NC(=O)[C@@H]1CCO1)C(=O)N1CCC[C@H](N1)C(=O)OCC(C)(C)C2 :: 5.00 to 6.00
5) CCn1c(-c2cccnc2[C@H](C)OC)c2c3cc(ccc31)-c1csc(n1)C[C@H](NC(=O)N1CCOCC1)C(=O)N1CCC[C@H](N1)C(=O)OCC(C)(C)C2 :: 6.00 to 7.00
6) CCn1c(-c2cnccc2COC)c2c3cc(ccc31)-c1cc(O)cc(c1)C[C@H](NC(=O)[C@@H](NC(=O)c1ncco1)C(C)C)C(=O)N1CCC[C@H](N1)C(=O)OCC(C)(C)C2 :: < 5.00

Form field pIC50, entry CCn1c(-c2cccnc2[C@H](C)OC)c2c3cc(ccc31)-c1csc(n1)C[C@H](NC(=O)[C@H](C(C)C)N(C)C(=O)[C@@H]1[C@@H]3CN(C)C[C@@H]31)C(=O)N1CCC[C@H](N1)C(=O)OCC(C)(C)C2 : 6.00 to 7.00

Record CCn1c(-c2cccnc2[C@H](C)OC)c2c3cc(ccc31)-c1csc(n1)C[C@H](NC(=O)[C@H](C(C)C)N(C)C(=O)N1CCCC[C@H](N(C)C)C1)C(=O)N1CCC[C@H](N1)C(=O)OCC(C)(C)C2 , field pIC50: 7.00 to 8.00

The molecule identified as CCn1c(-c2cccnc2[C@H](C)OC)c2c3cc(ccc31)-c1csc(n1)C[C@H](NC(=O)N1CCC1)C(=O)N1CCC[C@H](N1)C(=O)OCC(C)(C)C2 registered its pIC50 at 6.00 to 7.00

* * *

TGT: KRAS WT (Homo sapiens (Human), UniProt P01116+P62937)
Sequence (P01116 other isoform, or with tags, fused parts or gaps, one chain of several): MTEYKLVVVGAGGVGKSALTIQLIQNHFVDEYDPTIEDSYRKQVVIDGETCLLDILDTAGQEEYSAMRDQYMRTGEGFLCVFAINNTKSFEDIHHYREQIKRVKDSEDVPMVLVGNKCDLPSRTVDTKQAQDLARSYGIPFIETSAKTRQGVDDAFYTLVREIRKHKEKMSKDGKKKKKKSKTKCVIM
TEST_DESCRIPTION: Ras-Raf disruption/FRET/MOA assay (BRAF RBD, Cyclophilin A)
Type: biochemical
RUN_PARAMETERS: read-out: KRAS WT FRET data IC50
Examples of molecules with documented IC50 follow.

For orientation, consider the following solved cases.
1) CCn1c(-c2cccnc2[C@H](C)OC)c2c3cc(ccc31)-c1cc(O)cc(c1)C[C@H](NC(=O)[C@H](C(C)C)N(C)C(=O)[C@H]1C[C@H]1O)C(=O)N1CCC[C@H](N1)C(=O)OCC(C)(C)C2 :: 0.01 to 0.1 µM
2) CCn1c(-c2cccnc2[C@H](C)OC)c2c3cc(ccc31)-c1csc(n1)C[C@H](NC(=O)[C@H](C(C)C)N(C)C(=O)N1CC([C@@H](CO)OC)C1)C(=O)N1CCC[C@H](N1)C(=O)OCC(C)(C)C2 :: 0.1 to 1 µM
3) CCn1c(-c2cccnc2COC)c2c3cc(ccc31)-c1cc(O)cc(c1)C[C@H](NC(=O)[C@H](C(C)C)N(C)C(C)=O)C(=O)N1CCC[C@H](N1)C(=O)OCC(C)(C)C2 :: 1 to 10 µM
4) CCn1c(-c2cnccc2COC)c2c3cc(ccc31)-c1cc(O)cc(c1)C[C@H](NC(=O)[C@H](C(C)C)N(C)C(=O)CNC(=N)N)C(=O)N1CCC[C@H](N1)C(=O)OCC(C)(C)C2 :: 0.1 to 1 µM
5) CCn1c(-c2cnccc2COC)c2c3cc(ccc31)-c1cc(O)cc(c1)C[C@H](NC(=O)[C@H](C(C)C)N1CCCC1=O)C(=O)N1CCC[C@H](N1)C(=O)OCC(C)(C)C2 :: 0.1 to 1 µM
6) CCn1c(-c2cnccc2COC)c2c3cc(ccc31)-c1cc(O)cc(c1)C[C@H](NC(=O)[C@H](C(C)C)N(C)C(=O)O[C@@H]1CCOC1)C(=O)N1CCC[C@H](N1)C(=O)OCC(C)(C)C2 :: 0.1 to 1 µM
7) CCn1c(-c2cccnc2[C@H](C)OC)c2c3cc(ccc31)-c1cc(O)cc(c1)C[C@H](NC(=O)[C@H](C(C)C)N(C)C(=O)C1CN3CCCN1CC3)C(=O)N1CCC[C@H](N1)C(=O)OCC(C)(C)C2 (stereo partly drawn) :: 0.1 to 1 µM
8) CCn1c(-c2cccnc2[C@H](C)OC)c2c3cc(ccc31)-c1cc(O)cc(c1)C[C@H](NC(=O)[C@H](C(C)C)N(C)C(=O)[C@H]1CCN(C(C)=O)C1)C(=O)N1CCC[C@H](N1)C(=O)NCC(C)(C)C2 :: 1 to 10 µM

Turning to the following molecule.
// IC50 value for CCn1c(-c2cccnc2[C@H](C)OC)c2c3cc(ccc31)-c1csc(n1)C[C@H](NC(=O)[C@H](C(C)C)N(C)C(=O)N1C[C@H]3CN(C)CC[C@H]31)C(=O)N1CCC[C@H](N1)C(=O)OCC(C)(C)C2 : 1 to 10 µM

* * *

TGT: KRAS G12D (Homo sapiens (Human), UniProt P01116+P62937, G12D)
Sequence (P01116 other isoform, or with tags, fused parts or gaps G12D, one chain of several): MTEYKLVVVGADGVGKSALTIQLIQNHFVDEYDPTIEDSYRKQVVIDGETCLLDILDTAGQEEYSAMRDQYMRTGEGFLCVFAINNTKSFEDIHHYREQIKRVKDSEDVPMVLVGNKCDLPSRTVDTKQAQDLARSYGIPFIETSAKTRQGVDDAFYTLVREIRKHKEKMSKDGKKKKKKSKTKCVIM
TEST_DESCRIPTION: Ras-Raf disruption/FRET/MOA assay (BRAF RBD, Cyclophilin A)
Assay type: biochemical
RUN_PARAMETERS: read-out: KRAS G12D FRET IC50
Description: Compound is present in plate wells as a 10-point 3-fold dilution series starting at a final concentration of 30 μM. After incubation at 25° C. for 3 hours, a mixture of Anti-His Eu—W1024 and anti-GST allophycocyanin is then added to assay sample wells at final concentrations of 10 nM and 50 nM, respectively, and the reaction incubated for an additional 1.5 hours. […]
pIC50: −log10 of the molar value.
OBSERVED_PROPERTY: pIC50

Known pIC50 results, listed for orientation:
1. CCn1c(-c2cccnc2[C@H](C)OC)c2c3cc(ccc31)-c1cc(O)cc(c1)C[C@H](NC(=O)[C@H](C(C)C)N(C)C(=O)C1CCCC1)C(=O)N1CCC[C@H](N1)C(=O)OCC(C)(C)C2 :: 6.00 to 7.00
2. CCn1c(-c2cccnc2[C@H](C)OC)c2c3cc(ccc31)-c1csc(n1)C[C@H](NC(=O)[C@H](C(C)C)N(C)C(=O)N1CC(N(C)C(C)C)C1)C(=O)N1CCC[C@H](N1)C(=O)OCC(C)(C)C2 :: 5.00 to 6.00

Kindly consider the entry below.
For CCn1c(-c2cccnc2[C@H](C)OC)c2c3cc(ccc31)-c1cc(O)cc(c1)C[C@H](NC(=O)[C@H](C(C)C)N(C)C(=O)[C@@H]1CCN(C(=O)OC)C1)C(=O)N1CCC[C@H](N1)C(=O)OCC(C)(C)C2 the compound record lists pIC50 as 7.00 to 8.00
